Data provenance: paper PMC3607822

Biological target: CNGA3 N5R-A, 613X channels (Homo sapiens, UniProt Q16281, R72A/R75A/R81A/R82A/R86A)
Test: Inside-out patch clamp, CNGA3 N5R-A, 613X
Settings: read-out: K1/2 cGMP; +80 mV, no PIPn
quantity_kind: EC50
Your answer should be a number followed by the unit of measure.

Task: Would you mind telling me what EC50 value was observed for Nc1nc2c(ncn2[C@@H]2O[C@@H]3COP(=O)(O)O[C@H]3[C@H]2O)c(=O)[nH]1 [cGMP, cyclic guanosine monophosphate] ?
Output: 16.7 µM

* * *

Molecular target: CNGA3 C7K/R-A (K624A, K629A, R643A, R646A, K657A, K659A, R661A) channels (Homo sapiens, UniProt Q16281, K624A/K629A/K657A/K659A/R643A/R646A/R661A)
Sequence (Q16281 1-694 K624A/K629A/R643A/R646A/K657A/K659A/R661A): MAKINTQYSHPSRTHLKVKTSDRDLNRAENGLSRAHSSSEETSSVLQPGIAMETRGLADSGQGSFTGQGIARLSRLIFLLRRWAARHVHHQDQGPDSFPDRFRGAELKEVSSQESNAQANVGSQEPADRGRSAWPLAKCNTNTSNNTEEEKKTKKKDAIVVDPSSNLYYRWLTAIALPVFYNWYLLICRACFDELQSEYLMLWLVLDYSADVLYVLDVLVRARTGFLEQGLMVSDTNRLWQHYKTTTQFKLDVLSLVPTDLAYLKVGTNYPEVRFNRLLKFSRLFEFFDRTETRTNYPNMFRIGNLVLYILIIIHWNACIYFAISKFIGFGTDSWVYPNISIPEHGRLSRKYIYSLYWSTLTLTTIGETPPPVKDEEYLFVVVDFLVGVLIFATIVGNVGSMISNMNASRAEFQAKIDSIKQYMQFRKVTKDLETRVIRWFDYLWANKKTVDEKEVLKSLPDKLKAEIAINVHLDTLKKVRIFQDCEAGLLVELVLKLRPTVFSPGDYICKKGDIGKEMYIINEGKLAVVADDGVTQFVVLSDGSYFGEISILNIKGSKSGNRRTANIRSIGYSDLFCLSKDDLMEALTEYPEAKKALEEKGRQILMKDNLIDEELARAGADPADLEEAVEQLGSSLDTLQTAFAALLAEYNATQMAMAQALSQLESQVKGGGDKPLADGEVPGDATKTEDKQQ
Test: Inside-out patch clamp, CNGA3 C7K/R-A
Conditions: read-out: K1/2 cGMP; +80 mV, no PIPn
quantity_kind: EC50 (µM)
Field format: number, assumed µM, no unit text.

Task: Would you mind telling me what EC50 value was observed for Nc1nc2c(ncn2[C@@H]2O[C@@H]3COP(=O)(O)O[C@H]3[C@H]2O)c(=O)[nH]1 [cGMP, cyclic guanosine monophosphate] ?
Output: 9.37

* * *

Target: CNGA3 N7R-A, 613X channels (Homo sapiens, UniProt Q16281, R101A/R103A/R72A/R75A/R81A/R82A/R86A)
Sequence (Q16281 1-612 R72A/R75A/R81A/R82A/R86A/R101A/R103A limits assumed): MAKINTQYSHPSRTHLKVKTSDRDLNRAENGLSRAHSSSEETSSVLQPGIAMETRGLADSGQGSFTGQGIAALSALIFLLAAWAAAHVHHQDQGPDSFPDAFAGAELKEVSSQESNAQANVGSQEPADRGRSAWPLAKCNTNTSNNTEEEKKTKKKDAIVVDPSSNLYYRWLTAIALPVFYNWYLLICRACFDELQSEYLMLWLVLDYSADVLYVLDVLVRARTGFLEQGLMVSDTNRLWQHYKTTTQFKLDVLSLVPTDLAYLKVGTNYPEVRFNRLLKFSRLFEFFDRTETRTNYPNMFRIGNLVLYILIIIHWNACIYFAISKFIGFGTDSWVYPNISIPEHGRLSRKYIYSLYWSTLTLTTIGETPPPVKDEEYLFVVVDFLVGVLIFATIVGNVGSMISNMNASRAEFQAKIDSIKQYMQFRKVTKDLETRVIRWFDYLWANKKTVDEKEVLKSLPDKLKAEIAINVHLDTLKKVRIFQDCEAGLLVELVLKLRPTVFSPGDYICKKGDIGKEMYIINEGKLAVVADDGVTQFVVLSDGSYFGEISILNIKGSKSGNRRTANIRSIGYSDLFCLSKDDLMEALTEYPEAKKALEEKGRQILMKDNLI
Assay: Inside-out patch clamp, CNGA3 N7R-A, 613X
Conditions: read-out: K1/2 cGMP; +80 mV, no PIPn
quantity_kind: pEC50
pEC50 here is simply -log10 of the concentration when that concentration is written in mol/L.

Task: Would you mind telling me what pEC50 value was observed for Nc1nc2c(ncn2[C@@H]2O[C@@H]3COP(=O)(O)O[C@H]3[C@H]2O)c(=O)[nH]1 [cGMP, cyclic guanosine monophosphate] ?
Output: 4.79
